Where do the numbers come from? From patent US20260242415A1.

# TARGET_OR_SYSTEM: SARS-CoV-2 spike protein (Severe acute respiratory syndrome coronavirus 2, UniProt P0DTC2)
# Type: binding
# Set-up: key: Results labeled “−” represent decreased binding; Results labeled “0” represent substantially similar binding; Results labeled “1” represent the original sequence; Results labeled “+” represent about 105-200% binding; Results labeled “++” represent about 200-300% binding; Results labeled “+++” represent about 300-500% binding; Results labeled “++++” represent over about 500% binding
MEASURE: binding standardized to SEQ ID NO: 1

RRPREQIIIGSAWVF [SEQ ID NO: 27]; −
RRPREQAIIGSLWVF [SEQ ID NO: 22]; −
ARPREQIIIGSLWVF [SEQ ID NO: 16]; −
RRPREQIIIGSLWVF [Compound S1b3inL1]; 1
